Readings of solubility thermodynamic at 72 h for the listed compounds
- procedure.details: HT EQ solubility assay
- Format: physicochemical
- settings: buffer pH 2, aqueous buffer, thermodynamic from solid; pH = 2, stirred 72 h; read-out: HtEq Sol
assay.metric: solubility thermodynamic at 72 h (µM)

INSERT INTO measurements (compound, assay_metric, comparative_sign, result) VALUES
  ('Cc1c(C(=O)C(=O)NC2(c3c[nH]nn3)CC(F)(F)C2)c(C)n(C)c1C(=O)Nc1ccc(F)c(C#N)c1 [Compound 28]', 'solubility thermodynamic at 72 h', '<', 5),
  ('Cc1c(C(=O)C(=O)NC2(c3cn[nH]n3)CC(F)(F)C2)cn(C)c1C(=O)Nc1ccc(F)c(Cl)c1 [Compound 13]', 'solubility thermodynamic at 72 h', '=', 1.1);

* * *

- procedure.details: Pharmacokinetics assessment in mice
- Format: in vivo, C57BL mice
- settings: male, C57BL, plasma; mouse, PO (PEG400) 50 mg/kg
- Experimental: The pharmacokinetic profile was evaluated in fed male C57BL mice (n=3/group). Mice were i.v. injected with test compound at 2.5 mg/kg, formulated as solution in PEG400/water (70/30), and blood samples were collected from the dorsal metatarsal vein at 0.05, 0.117, 0.333, 1, 2, 4, 7, and 24 hours into EDTA-containing microcentrifuge tubes. […] Compound concentrations from the plasma samples were analyzed using LC-MS/MS (LCMS-8050 instrument). […]
assay.metric: Cmax (ng/mL)

INSERT INTO results (compound, unit_abbreviation, result) VALUES
  ('Cc1c(C(=O)C(=O)NC2(c3c[nH]nn3)CC(F)(F)C2)c(C)n(C)c1C(=O)Nc1ccc(F)c(C#N)c1 [Compound 28]', 'ng/mL', 1630);

* * *

- procedure.details: Cytotoxicity, ATPlite cell viability
- Assay type: cell-based
- settings: human, mean value, HepG2 or HepG2.117 cells
Readings of CC50 at 4 days for the listed compounds
assay.metric: CC50 at 4 days (µM)

INSERT INTO results (compound, comparative_sign, result) VALUES
  ('Cn1cc(C(=O)C(=O)NC2(c3cn[nH]n3)CC(F)(F)C2)c(Cl)c1C(=O)Nc1ccc(F)c(Cl)c1 [Compound 3]', '=', 22),
  ('Cc1c(C(=O)C(=O)NC2(c3cn[nH]n3)CC(F)(F)C2)cc(C(=O)Nc2ccc(F)c(C#N)c2)n1C [Compound 45]', '>', 50),
  ('Cc1c(C(=O)C(=O)NC(CC(F)F)c2cn[nH]n2)c(C)n(C)c1C(=O)Nc1ccc(F)c(C#N)c1 (stereo not shown) [Compound 29]', '>', 50),
  ('Cn1cc(C(=O)C(=O)NC2(c3nc[nH]n3)CC(F)(F)C2)cc1C(=O)Nc1ccc(F)c(C#N)c1 [Compound 30]', '=', 31.1),
  ('Cn1cc(C(=O)C(=O)N[C@H](CC(F)F)c2cn[nH]n2)cc1C(=O)Nc1ccc(F)c(C#N)c1 (single isomer, unassigned) [24*R]', '=', 9.4),
  ('Cc1c(C(=O)C(=O)NC2(c3cn[nH]n3)CC(F)(F)C2)c(C#N)n(C)c1C(=O)Nc1ccc(F)c(Cl)c1 [Compound 55]', '>', 50),
  ('Cc1c(C(=O)C(=O)N[C@]2(c3cn[nH]n3)C[C@@H](F)C2)cn(C)c1C(=O)Nc1ccc(F)c(C#N)c1 [Compound 57trans]', '>', 50);
